# Test system: Candida albicans
# testConditions: Concentration 32 ug.mL-1; ASSAY_TEST Inhibition of Fungal Growth; detection method Absorption (OD530)
# Description: Antifungal activity against Candida albicans ATCC 90028 (CO-ADD:FG_001); MIC in YNB media using NBS plates, by OD630
Measured potencies and affinities stand elsewhere.
observable: Inhibition (%)
Please reply with the bare figure in % and do not write the unit itself.

Below: 5 compounds and their reported Inhibition.
chemicalString | unitLabel | Inhibition
COc1ccc(NC(=O)Cn2nc3c(SC4CCCCC4)nccn3c2=O)cc1 | % | 6.08
CCCCn1c(=O)c2sccc2n2c(=O)n(CC(=O)N(C)c3ccccc3)nc12 | % | -0.48
CCCCOc1ccc(-c2cc3c4nnc(SCC(=O)Nc5ccc(CC)cc5)n4ccn3n2)cc1 | % | 2.18
N#Cc1cccc(Cn2nc3ccc(S(=O)(=O)N4CCCCCC4)cn3c2=O)c1 | % | -0.26
CCCc1nnc2c(=O)n(CC(=O)Nc3cccc(C(C)=O)c3)c3ccccc3n12 | % | 6.89

INPUT: Value lookup for Inhibition; key = "CC(C)NC(=O)CCn1c(=O)c2cc(Cl)ccc2n2c(=O)n(CC#N)nc12"
OUTPUT: 6.33

INPUT: Continue with "CCc1nnc2c(S(=O)(=O)N(Cc3cccc(Cl)c3)c3ccccc3)cccn12"
OUTPUT: 2.13

INPUT: Continue with "Cc1ccccc1CN(c1cccc(F)c1)S(=O)(=O)c1ccc2nncn2c1"
OUTPUT: 3.9

INPUT: Continue with "CC(=O)c1ccc(NC(=O)Cn2nc3c(SC4CCCCC4)nccn3c2=O)cc1"
OUTPUT: 0.5

INPUT: Continue with "Cc1nnc2c(S(=O)(=O)N(Cc3ccccc3)c3ccc(C(C)C)cc3)cccn12"
OUTPUT: -1.81

INPUT: Continue with "CCOc1ccc(-n2ccn3c(SCC(=O)Nc4ccc5c(c4)OCCO5)nnc3c2=O)cc1"
OUTPUT: 6.39

INPUT: Continue with "CCc1ccccc1Sc1nccn2c(=O)n(CC(=O)Nc3ccc(C)cc3)nc12"
OUTPUT: 39.33

INPUT: Continue with "COc1cc(OC)c(NC(=O)Cn2nc3ccc(SC4CCCCC4)nn3c2=O)cc1Cl"
OUTPUT: 29.07

INPUT: Continue with "Cc1ccc(NC(=O)Cn2nc3cc(C)nc(Nc4ccc(F)c(C)c4)n3c2=O)cc1"
OUTPUT: 7.21

INPUT: Continue with "O=C(Cn1nc2c3cc(-c4ccc(Cl)cc4)nn3ccn2c1=O)Nc1ccc(F)cc1"
OUTPUT: 1.82

INPUT: Continue with "Cc1ccc(C(=O)CSc2nnc3c(=O)n(-c4ccc(F)cc4)ccn23)c(C)c1"
OUTPUT: 2.78

INPUT: Continue with "O=C(Cn1nc2c(N3CCOCC3)nc3ccccc3n2c1=O)Nc1ccccc1Br"
OUTPUT: 1.17

INPUT: Continue with "Cc1cccc(Sc2nccn3c(=O)n(CC(=O)Nc4ccc(Br)cc4C)nc23)c1"
OUTPUT: 6.35

INPUT: Continue with "Cc1cc(C)cc(Nc2nc(C)cc3nn(CC(=O)Nc4cc(F)ccc4F)c(=O)n23)c1"
OUTPUT: 4.37

INPUT: Continue with "COc1ccc(C(=O)CSc2nnc3c(=O)n(-c4cccc(OC)c4)ccn23)cc1"
OUTPUT: 5.69
